# System: 496974-208-R-J2-PDC complex spheroids, growth % test/control
# protocol: Anticancer human tumor 496974-208-R-J2-PDC patient-derived pancreatic carcinoma cell line growth inhibition [CLK]
# conditions_used: curve of first compound; second compound 1 µM
Can you tell me pIC50 for the items I'm about to list?
Lab note — pIC50 values are minus log10 of concentrations in M.

[ask] State the recorded pIC50 for this entry: C=C(F)C(=O)N1CCN(c2nc(OCC3CCCN3C)nc3c2CCN(c2cccc4cccc(Cl)c24)C3)CC1CC#N (stereo not given) + CNC(=O)c1ccc(Nc2nc(OC3CCCC3)c3c(-c4ccc5nc(C)oc5c4)c[nH]c3n2)c(OC)c1
[reply] 5.56

[ask] // same read-out, input: COc1cccc2c1C(=O)c1c(O)c3c(c(O)c1C2=O)CC(O)(C(=O)CO)CC3OC1CC(N)C(O)C(C)O1 (stereo not given) + CNC(=O)c1ccc(Nc2nc(OC3CCCC3)c3c(-c4ccc5nc(C)oc5c4)c[nH]c3n2)c(OC)c1
[reply] 6.94

----------
# Test system: 496974-208-R-J2-PDC complex spheroids, growth % test/control
# protocol: Anticancer human tumor 496974-208-R-J2-PDC cell line growth inhibition [CLK];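 note: spheroids exposed to the drugs for 7 days before readout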;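 for viability, T/C: 100% = DMSO vehicle control wells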
# conditions_used: second compound 0.0316 µM; first compound 10 µM; stronger effect = lower value
Entry class follows viability, T/C: low class (below 20%), middle class (20% to below 40%), high class (40% or more)

[ask] Sort CC(CO)NC(=O)c1cc(-c2ccc(Cl)cc2)nn(-c2cnn(C)c2)c1=O (stereo not given) + CNC(=O)c1ccc(Nc2nc(OC3CCCC3)c3c(-c4ccc5nc(C)oc5c4)c[nH]c3n2)c(OC)c1 into one of the categories.
[reply] high class

[ask] // same read-out, input: CCCS(=O)(=O)Nc1ccc(F)c(C(=O)c2c[nH]c3ncc(-c4ccc(Cl)cc4)cc23)c1F + CN1CCN(c2cc(C(=O)Nc3cc4cc(-c5cnn(C)c5)ccc4cn3)ccn2)CC1
[reply] high class

[ask] // same read-out, input: COc1cccc2c1C(=O)c1c(O)c3c(c(O)c1C2=O)CC(O)(C(=O)CO)CC3OC1CC(N)C(O)C(C)O1 (stereo not given) + CNC(=O)c1ccc(Nc2nc(OC3CCCC3)c3c(-c4ccc5nc(C)oc5c4)c[nH]c3n2)c(OC)c1
[reply] low class

[ask] // same read-out, input: CC1COCCN1c1cc(C2(S(C)(=N)=O)CC2)nc(-c2ccnc3[nH]ccc23)n1 (stereo not given) + CNC(=O)c1ccc(Nc2nc(OC3CCCC3)c3c(-c4ccc5nc(C)oc5c4)c[nH]c3n2)c(OC)c1
[reply] high class

[ask] // same read-out, input: C=C(F)C(=O)N1CCN(c2nc(OCC3CCCN3C)nc3c2CCN(c2cccc4cccc(Cl)c24)C3)CC1CC#N (stereo not given) + CNC(=O)c1ccc(Nc2nc(OC3CCCC3)c3c(-c4ccc5nc(C)oc5c4)c[nH]c3n2)c(OC)c1
[reply] low class

[ask] // same read-out, input: CCCS(=O)(=O)Nc1ccc(F)c(C(=O)c2c[nH]c3ncc(-c4ccc(Cl)cc4)cc23)c1F + CNC(=O)c1ccc(Nc2nc(OC3CCCC3)c3c(-c4ccc5nc(C)oc5c4)c[nH]c3n2)c(OC)c1
[reply] middle class

[ask] // same read-out, input: CC1COCCN1c1cc(C2(S(C)(=N)=O)CC2)nc(-c2ccnc3[nH]ccc23)n1 (stereo not given) + CN1CCN(c2cc(C(=O)Nc3cc4cc(-c5cnn(C)c5)ccc4cn3)ccn2)CC1
[reply] middle class

[ask] // same read-out, input: C=C(F)C(=O)N1CCN(c2nc(OCC3CCCN3C)nc3c2CCN(c2cccc4cccc(Cl)c24)C3)CC1CC#N (stereo not given) + CN1CCN(c2cc(C(=O)Nc3cc4cc(-c5cnn(C)c5)ccc4cn3)ccn2)CC1
[reply] low class

[ask] // same read-out, input: COc1ccc([C@@H](O)c2cc(-c3ncnc4cc(N5CCOCC5)ccc34)c(F)cc2Cl)nn1 + CN1CCN(c2cc(C(=O)Nc3cc4cc(-c5cnn(C)c5)ccc4cn3)ccn2)CC1
[reply] middle class

[ask] // same read-out, input: Nc1ccn(C2OC(CO)C(O)C2(F)F)c(=O)n1 (stereo not given) + CN1CCN(c2cc(C(=O)Nc3cc4cc(-c5cnn(C)c5)ccc4cn3)ccn2)CC1
[reply] high class

[ask] // same read-out, input: CC(Nc1ccc2c(c1)OCCn1cc(N3C(=O)OCC3C(F)F)nc1-2)C(N)=O (stereo not given) + CN1CCN(c2cc(C(=O)Nc3cc4cc(-c5cnn(C)c5)ccc4cn3)ccn2)CC1
[reply] low class

[ask] // same read-out, input: C=CC(=O)N1CCN(c2nc(=O)n(-c3c(C)ccnc3C(C)C)c3nc(-c4c(O)cccc4F)c(F)cc23)C(C)C1 (stereo not given) + CN1CCN(c2cc(C(=O)Nc3cc4cc(-c5cnn(C)c5)ccc4cn3)ccn2)CC1
[reply] high class

[ask] // same read-out, input: C#Cc1c(F)ccc2cc(O)cc(-c3ncc4c(N5CC6CCC(C5)N6)nc(OCC56CCCN5CC(F)C6)nc4c3F)c12 (stereo not given) + CN1CCN(c2cc(C(=O)Nc3cc4cc(-c5cnn(C)c5)ccc4cn3)ccn2)CC1
[reply] middle class

[ask] // same read-out, input: CC(=O)O[C@H]1C(=O)[C@@]2(C)[C@H]([C@H](OC(=O)c3ccccc3)[C@]3(O)C[C@H](OC(=O)[C@H](O)[C@@H](NC(=O)c4ccccc4)c4ccccc4)C(C)=C1C3(C)C)[C@]1(OC(C)=O)CO[C@@H]1C[C@@H]2O + CN1CCN(c2cc(C(=O)Nc3cc4cc(-c5cnn(C)c5)ccc4cn3)ccn2)CC1
[reply] middle class

[ask] // same read-out, input: CC(CO)NC(=O)c1cc(-c2ccc(Cl)cc2)nn(-c2cnn(C)c2)c1=O (stereo not given) + CN1CCN(c2cc(C(=O)Nc3cc4cc(-c5cnn(C)c5)ccc4cn3)ccn2)CC1
[reply] high class

[ask] // same read-out, input: O=c1[nH]cc(F)c(=O)[nH]1 + CN1CCN(c2cc(C(=O)Nc3cc4cc(-c5cnn(C)c5)ccc4cn3)ccn2)CC1
[reply] high class

[ask] // same read-out, input: COC1C=CCC(C)C(C)S(=O)(=O)NC(=O)c2ccc3c(c2)N(CC2CCC21)CC1(CCCc2cc(Cl)ccc21)CO3 (stereo not given) + CN1CCN(c2cc(C(=O)Nc3cc4cc(-c5cnn(C)c5)ccc4cn3)ccn2)CC1
[reply] high class

[ask] // same read-out, input: Nc1ccccc1NC(=O)c1ccc(CNC(=O)OCc2cccnc2)cc1 + CNC(=O)c1ccc(Nc2nc(OC3CCCC3)c3c(-c4ccc5nc(C)oc5c4)c[nH]c3n2)c(OC)c1
[reply] low class

[ask] // same read-out, input: COC1C=CCC(C)C(C)S(=O)(=O)NC(=O)c2ccc3c(c2)N(CC2CCC21)CC1(CCCc2cc(Cl)ccc21)CO3 (stereo not given) + CNC(=O)c1ccc(Nc2nc(OC3CCCC3)c3c(-c4ccc5nc(C)oc5c4)c[nH]c3n2)c(OC)c1
[reply] middle class

[ask] // same read-out, input: CC(Nc1ccc2c(c1)OCCn1cc(N3C(=O)OCC3C(F)F)nc1-2)C(N)=O (stereo not given) + CNC(=O)c1ccc(Nc2nc(OC3CCCC3)c3c(-c4ccc5nc(C)oc5c4)c[nH]c3n2)c(OC)c1
[reply] low class

----------
# Test system: 496974-208-R-J2-PDC complex spheroids, growth % test/control
# protocol: Anticancer human tumor 496974-208-R-J2-PDC cell line growth inhibition [CLK];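 note: spheroids exposed to the drugs for 7 days before readout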;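 for viability, T/C: 100% = DMSO vehicle control wells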
# conditions_used: second compound 0.1 µM; first compound 0.1 µM; stronger effect = lower value
Can you tell me viability, T/C for the items I'm about to list?
Numbers only here, please. The scale is %.

[ask] State the recorded viability, T/C for this entry: C#Cc1c(F)ccc2cc(O)cc(-c3ncc4c(N5CC6CCC(C5)N6)nc(OCC56CCCN5CC(F)C6)nc4c3F)c12 (stereo not given) + CNC(=O)c1ccc(Nc2nc(OC3CCCC3)c3c(-c4ccc5nc(C)oc5c4)c[nH]c3n2)c(OC)c1
[reply] 46.7

[ask] // same read-out, input: C=CC(=O)N1CCN(c2nc(=O)n(-c3c(C)ccnc3C(C)C)c3nc(-c4c(O)cccc4F)c(F)cc23)C(C)C1 (stereo not given) + CNC(=O)c1ccc(Nc2nc(OC3CCCC3)c3c(-c4ccc5nc(C)oc5c4)c[nH]c3n2)c(OC)c1
[reply] 67.4

[ask] // same read-out, input: CC1COCCN1c1cc(C2(S(C)(=N)=O)CC2)nc(-c2ccnc3[nH]ccc23)n1 (stereo not given) + CNC(=O)c1ccc(Nc2nc(OC3CCCC3)c3c(-c4ccc5nc(C)oc5c4)c[nH]c3n2)c(OC)c1
[reply] 78.4

[ask] // same read-out, input: CC1COCCN1c1cc(C2(S(C)(=N)=O)CC2)nc(-c2ccnc3[nH]ccc23)n1 (stereo not given) + CN1CCN(c2cc(C(=O)Nc3cc4cc(-c5cnn(C)c5)ccc4cn3)ccn2)CC1
[reply] 83.4

[ask] // same read-out, input: C=C(F)C(=O)N1CCN(c2nc(OCC3CCCN3C)nc3c2CCN(c2cccc4cccc(Cl)c24)C3)CC1CC#N (stereo not given) + CNC(=O)c1ccc(Nc2nc(OC3CCCC3)c3c(-c4ccc5nc(C)oc5c4)c[nH]c3n2)c(OC)c1
[reply] 73.6

[ask] // same read-out, input: COC1C=CCC(C)C(C)S(=O)(=O)NC(=O)c2ccc3c(c2)N(CC2CCC21)CC1(CCCc2cc(Cl)ccc21)CO3 (stereo not given) + CN1CCN(c2cc(C(=O)Nc3cc4cc(-c5cnn(C)c5)ccc4cn3)ccn2)CC1
[reply] 78.4

[ask] // same read-out, input: CCc1c2c(nc3ccc(O)cc13)-c1cc3c(c(=O)n1C2)COC(=O)[C@]3(O)CC + CN1CCN(c2cc(C(=O)Nc3cc4cc(-c5cnn(C)c5)ccc4cn3)ccn2)CC1
[reply] 10.7

[ask] // same read-out, input: Cn1ncnc1[C@H]1c2n[nH]c(=O)c3cc(F)cc(c23)N[C@@H]1c1ccc(F)cc1 + CNC(=O)c1ccc(Nc2nc(OC3CCCC3)c3c(-c4ccc5nc(C)oc5c4)c[nH]c3n2)c(OC)c1
[reply] 78

[ask] // same read-out, input: CCc1c2c(nc3ccc(O)cc13)-c1cc3c(c(=O)n1C2)COC(=O)[C@]3(O)CC + CNC(=O)c1ccc(Nc2nc(OC3CCCC3)c3c(-c4ccc5nc(C)oc5c4)c[nH]c3n2)c(OC)c1
[reply] 21.2

[ask] // same read-out, input: CC1(C)CCC(CN2CCN(c3ccc(C(=O)NS(=O)(=O)c4ccc(NCC5CCOCC5)c([N+](=O)[O-])c4)c(Oc4cnc5[nH]ccc5c4)c3)CC2)=C(c2ccc(Cl)cc2)C1 + CN1CCN(c2cc(C(=O)Nc3cc4cc(-c5cnn(C)c5)ccc4cn3)ccn2)CC1
[reply] 77.9
